Measured values drawn from patent US20110281810A1 for this set.

assay: Solubilization of a homologous series of cinnamic acid derivatives in water by solubilizers; details: Eumulgin RO35 solution in water, aqueous with cosolvent or surfactant or cyclodextrin, Solubility (MW) with Eumulgin RO35, water, solubilizer Eumulgin RO35
Observed Property: solubility (mg/mL)

CC(C)COC(=O)C=Cc1ccccc1 [Isobutyl cinnamate, isobutyl cinnamate]: 54.2

P: CC(C)OC(=O)C=Cc1ccccc1 [Isopropyl cinnamate, isopropyl cinnamate]
Q: COC(=O)C=Cc1ccccc1 [Methyl cinnamate, methyl cinnamate]
IN: Rank P against Q by their solubility values and give the higher one. Your answer should be the label of the entry you select.
OUT: P

---

experiment: physchem; settings: water, Solubility, no solubilizer
Observed Property: solubility (µg/mL)

A: CCC(C)n1ncn(-c2ccc(N3CCN(c4ccc(OCC5COC(Cn6cncn6)(c6ccc(Cl)cc6Cl)O5)cc4)CC3)cc2)c1=O (centres unmarked)
B: CC[C@H]1OC(=O)[C@H](C)[C@@H](O[C@H]2C[C@@](C)(OC)[C@@H](O)[C@H](C)O2)[C@H](C)[C@@H](O[C@@H]2O[C@H](C)C[C@H](N(C)C)[C@H]2O)[C@](C)(O)C[C@@H](C)C(=O)[C@H](C)[C@@H](O)[C@]1(C)O
IN: Rank A against B by their solubility values and give the higher one. Your answer should be the label of the entry you select.
OUT: B

---

assay: physchem; settings: aqueous with cosolvent or surfactant or cyclodextrin, Solubility with Eumulgin HPS
Observed Property: solubility (µg/mL)
// units = µg/mL; emit number, no label

IN: Suppose we examine the molecule CC[C@H]1OC(=O)[C@H](C)[C@@H](O[C@H]2C[C@@](C)(OC)[C@@H](O)[C@H](C)O2)[C@H](C)[C@@H](O[C@@H]2O[C@H](C)C[C@H](N(C)C)[C@H]2O)[C@](C)(O)C[C@@H](C)C(=O)[C@H](C)[C@@H](O)[C@]1(C)O [Erythromycin] ; what solubility value has been reported?
OUT: 1230

---

assay: Solubilization of a homologous series of cinnamic acid derivatives in water by solubilizers; conditions: Speziol TPGS solution in water, aqueous with cosolvent or surfactant or cyclodextrin, Solubility (MW) with Speziol TPGS, water, solubilizer Speziol TPGS
Observed Property: solubility (mg/mL)

1: COC(=O)C=Cc1ccccc1 [Methyl cinnamate, methyl cinnamate]
2: CC(C)OC(=O)C=Cc1ccccc1 [Isopropyl cinnamate, isopropyl cinnamate]
IN: Rank 1 against 2 by their solubility values and give the higher one. Your answer should be the label of the entry you select.
OUT: 2
